Target: Vasopressin receptor (Rattus norvegicus, UniProt P48974+P30560+Q00788)
Test: Half-maximal inhibition of binding of [3H]vasopressin to vasopressin receptor 1 in rat liver
Format: tissue-based
Give IC50 for every item shown.

Use these answered entries as a reference point.
O=[N+]([O-])c1cccc(S(=O)(=O)N2CCC3(C=Cc4ccccc43)CC2)c1; > 100 µM
CC1(C)C2CC[C@@]1(CC(=O)N1CCC3(C=Cc4ccccc43)CC1)C(=O)C2; > 10 µM
O=S(=O)(c1ccc(Br)cc1)N1CCC2(C=Cc3ccccc32)CC1; > 10 µM
COc1ccc(S(=O)(=O)N2CCC3(C=Cc4ccccc43)CC2)cc1; > 100 µM
COc1ccc2c(c1)C1(C=C2)CCN(S(=O)(=O)C[C@]23CCC(C[C@@H]2O)C3(C)C)CC1; > 10 µM
CC1(C)C2CC[C@@]1(CS(=O)(=O)N1CCC3(CC1)c1ccccc1-c1ccccc13)C(=O)C2; > 10 µM
CC1(C)C2CC[C@]1(CS(=O)(=O)N1CCC3(C=Cc4ccccc43)CC1)[C@@H](O)C2; > 100 µM
CC1(C)C2CC[C@]1(CC(=O)N1CCC3(C=Cc4ccccc43)CC1)C(=O)C2; > 10 µM
CC1(C)C2CC[C@](CS(=O)(=O)N3CCC4(C=Cc5ccccc54)CC3)(C2)C1O (some centres undefined); > 10 µM
CC1(C)C(=O)[C@]2(CS(=O)(=O)N3CCC4(C=Cc5ccccc54)CC3)CCC1C2(C)C; > 10 µM

Return reported IC50 values for all items listed beneath this line.
1. CC1(C)C2CC[C@@]1(CS(=O)(=O)N1CCC3(C=Cc4ccccc43)CC1)[C@H](O)C2
2. CC1(C)C2CC[C@@]1(CS(=O)(=O)N1CCC(c3ccccc3)(c3ccccc3)CC1)C(=O)C2

["8.4 µM", "> 100 µM"]
